# TEST TARGET: DNA-PK protein complex (Homo sapiens, UniProt P78527)
# RUN DESCRIPTION: Biochemical DNA-PK assay (FlashPlate)
Overview of recorded IC50 for various compounds

QUERY: Need IC50 of COc1ccc(Cn2c(-c3cc(-c4cnc5[nH]ncc5c4)ccn3)cn(C)c2=O)cc1 [Example A109] , thanks.
RESULT: 0.1 to 100 nM

QUERY: Any idea what IC50 was measured for Cn1cc(-c2cc(-c3cnc4ccccc4c3)ccn2)n(-c2ccc(C(C)(C)CN)cc2)c1=O [Example A30] ?
RESULT: 100 to 10000 nM

QUERY: # input compound: Cc1cccc(-n2c(-c3cc(-c4cnc5[nH]ccc5c4)ccn3)cn(C)c2=O)c1 [Example A79] ; wanted: its IC50
RESULT: 0.1 to 100 nM

QUERY: Requested field: IC50. Item: Cn1cc(-c2cc(-c3cnc(N)c(C#N)c3)ccn2)n(-c2ccc(N3CCNCC3)c(C(F)(F)F)c2)c1=O [Example A65]
RESULT: 0.1 to 100 nM

QUERY: IC50 for COc1cc(-n2c(-c3cc(-c4cnc5[nH]ccc5c4)ccn3)cn(C)c2=O)ccc1Cl [Example A58] ?
RESULT: 100 to 10000 nM

QUERY: Consider the compound Cn1cc(-c2cc(-c3ccc(NS(C)(=O)=O)nc3)ccn2)n(-c2ccc(N3CCNCC3)c(C(F)(F)F)c2)c1=O [Example A61] and give its measured IC50.
RESULT: 0.1 to 100 nM

QUERY: Which value of IC50 has been reported for Cn1cc(-c2cc(-c3ccc4[nH]ncc4c3)ccn2)n(-c2ccc(C(C)(C)C#N)cc2)c1=O [Example A52] in the records?
RESULT: 0.1 to 100 nM

----------
READOUT: melting point (°C)
Return type: number; implicit unit °C.

QUERY: Which measured melting point value corresponds to COc1ccc(-c2ccnc(-c3cn(C)c(=O)n3-c3ccc(C(C)(C)C#N)cc3)c2)cn1 ?
RESULT: 187

QUERY: Need melting point of Cn1cc(-c2cc(-c3cnc4[nH]ccc4c3)ccn2)n(-c2ccc(N3CCNCC3)c(C(F)(F)F)c2)c1=O , thanks.
RESULT: 163

QUERY: Any idea what melting point was measured for COc1cc(-n2c(-c3cc(-c4cnc5[nH]ccc5c4)ccn3)cn(C)c2=O)ccc1Cl ?
RESULT: 223

QUERY: // returns reported melting point for input Cn1cc(-c2cc(-c3cnc4c(c3)CCN4)ccn2)n(-c2ccc(C(C)(C)C#N)cc2)c1=O
RESULT: 247

QUERY: Would you mind telling me what melting point value was observed for COc1ccc(-c2ccnc(-c3c[nH]c(=O)n3-c3ccc(C(C)(C)C#N)cc3)c2)cn1 ?
RESULT: 277

QUERY: Any idea what its melting point is? The molecule is CNc1ccc(-c2ccnc(-c3cn(C)c(=O)n3-c3ccc(C(C)(C)C#N)cc3)c2)cn1
RESULT: 191

QUERY: Param item = Cc1nc2cc(-c3ccnc(-c4cn(C)c(=O)n4-c4ccc(C(C)(C)C#N)cc4)c3)cnc2[nH]1 ; retrieve measured melting point.
RESULT: 288

----------
// mTOR (Homo sapiens, UniProt P42345) IC50 records

These recorded examples may help you get a feel for the data.
>  <COMPOUND>
Cn1cc(-c2cc(-c3cnc4[nH]ncc4c3)ccn2)n(-c2cccc(C#N)c2)c1=O [Example A63]

>  <TEST TARGET>
mTOR (Homo sapiens, UniProt P42345)
Sequence (P42345 1362-2549 limits assumed): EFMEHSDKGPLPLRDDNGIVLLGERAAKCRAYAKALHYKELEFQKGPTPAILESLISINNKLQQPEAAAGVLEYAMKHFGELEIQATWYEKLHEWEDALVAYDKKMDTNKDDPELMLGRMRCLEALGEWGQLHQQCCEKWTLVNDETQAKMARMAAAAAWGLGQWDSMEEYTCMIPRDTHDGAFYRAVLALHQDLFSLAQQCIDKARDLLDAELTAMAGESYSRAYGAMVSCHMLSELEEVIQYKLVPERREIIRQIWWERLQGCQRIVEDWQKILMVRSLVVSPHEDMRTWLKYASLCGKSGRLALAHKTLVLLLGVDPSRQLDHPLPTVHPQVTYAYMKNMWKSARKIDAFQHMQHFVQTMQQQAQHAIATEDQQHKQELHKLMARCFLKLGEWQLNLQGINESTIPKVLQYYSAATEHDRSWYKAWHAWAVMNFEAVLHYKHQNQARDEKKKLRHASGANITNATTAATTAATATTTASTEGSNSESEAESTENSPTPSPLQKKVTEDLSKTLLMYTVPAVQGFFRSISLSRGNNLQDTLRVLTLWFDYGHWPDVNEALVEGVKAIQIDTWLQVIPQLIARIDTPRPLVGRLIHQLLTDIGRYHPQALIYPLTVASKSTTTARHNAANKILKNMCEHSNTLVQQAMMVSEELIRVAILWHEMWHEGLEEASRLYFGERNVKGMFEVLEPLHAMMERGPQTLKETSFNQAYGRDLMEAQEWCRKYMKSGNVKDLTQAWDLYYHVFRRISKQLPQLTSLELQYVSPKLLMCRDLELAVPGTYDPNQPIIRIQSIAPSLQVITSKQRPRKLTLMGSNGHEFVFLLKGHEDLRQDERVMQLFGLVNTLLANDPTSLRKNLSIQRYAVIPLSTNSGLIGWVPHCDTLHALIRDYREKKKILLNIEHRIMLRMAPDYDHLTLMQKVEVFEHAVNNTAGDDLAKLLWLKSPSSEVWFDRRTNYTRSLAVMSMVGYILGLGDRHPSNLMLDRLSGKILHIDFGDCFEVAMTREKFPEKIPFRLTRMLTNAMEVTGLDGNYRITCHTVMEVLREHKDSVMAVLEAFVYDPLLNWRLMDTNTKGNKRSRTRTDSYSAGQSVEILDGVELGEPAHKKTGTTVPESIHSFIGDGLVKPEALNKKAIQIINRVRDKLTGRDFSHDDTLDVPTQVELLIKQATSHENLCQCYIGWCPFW

>  <IC50>
0.1 to 100 nM

$$$$
>  <COMPOUND>
Cn1cc(-c2cc(-c3cnc4ccccc4c3)ccn2)n(-c2ccc(C(C)(C)C(=O)O)cc2)c1=O [Example A22]

>  <TEST TARGET>
mTOR (Homo sapiens, UniProt P42345)

>  <IC50>
100 to 10000 nM

$$$$
>  <COMPOUND>
Cc1cccc(-n2c(-c3cc(-c4cnc5[nH]ccc5c4)ccn3)cn(C)c2=O)c1 [Example A79]

>  <TEST TARGET>
mTOR (Homo sapiens, UniProt P42345)

>  <IC50>
100 to 10000 nM

$$$$

QUERY: Quick one: IC50 of CCOC(=O)C(C)(C)c1ccc(-n2c(-c3cc(-c4cnc5ccccc5c4)ccn3)cn(C)c2=O)cc1 [Example A36] ?
RESULT: 100 to 10000 nM

Source of measurements: patent US8802866B2
